Target: YPDC (Saccharomyces cerevisiae)
Test: CD titration with propionylphosphinate
Type: binding
Conditions: read-out: Kd^app (IP); 1′,4′-iminopyrimidine tautomer of PPThDP, CD band at 297 nm; pH 6.0, 25 °C
property: pKd
pKd here is simply -log10 of the concentration when that concentration is written in mol/L.

stdin: Entry under review: CCC(=O)[PH](=O)[O-].[Na+] [PP, sodium propionylphosphinate] . Reported pKd?
stdout: 2.11

* * *

Target: YPDC (Saccharomyces cerevisiae, UniProt P06169)
Sequence (P06169 whole entry): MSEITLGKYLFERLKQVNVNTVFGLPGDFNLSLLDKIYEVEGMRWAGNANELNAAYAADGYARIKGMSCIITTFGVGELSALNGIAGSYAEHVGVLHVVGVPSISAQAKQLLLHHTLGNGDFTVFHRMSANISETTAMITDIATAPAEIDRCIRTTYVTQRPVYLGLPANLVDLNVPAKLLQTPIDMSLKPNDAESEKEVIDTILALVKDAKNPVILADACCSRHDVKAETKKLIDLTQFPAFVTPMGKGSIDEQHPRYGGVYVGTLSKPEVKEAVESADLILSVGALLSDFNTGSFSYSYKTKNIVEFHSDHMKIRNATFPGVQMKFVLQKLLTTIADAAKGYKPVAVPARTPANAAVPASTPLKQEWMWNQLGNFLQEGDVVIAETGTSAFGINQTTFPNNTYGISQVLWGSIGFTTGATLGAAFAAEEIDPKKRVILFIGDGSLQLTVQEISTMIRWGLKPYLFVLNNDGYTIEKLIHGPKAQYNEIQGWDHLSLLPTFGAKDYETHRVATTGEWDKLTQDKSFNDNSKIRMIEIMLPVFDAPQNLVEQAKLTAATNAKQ
Assay: CD titration with propionylphosphinate
Type: binding
Conditions: read-out: Kd^app (MC); Michaelis complex, negative CD band at 330 nm; pH 6.0, 25 °C
property: pKd
pKd (log units): -log10 of the concentration in mol/L.

stdin: Entry under review: CCC(=O)[PH](=O)[O-].[Na+] [PP, sodium propionylphosphinate] . Reported pKd?
stdout: 2.04
